test: A549 lung cancer cell viability effects, profiling panel, resazurin fluorescence, 24 h, PK04 Diversity Set (AID 1171); conditions: higher = more signal, called active from +8 up or from −8 down; also: test concentration not given here
measured_parameter: z-score
Answers are plain numbers.

See these solved cases before continuing.
compound: O=C(c1ccccc1)N1Cc2ccccc2C[C@@]2(COC(c3ccc(OCCCO)cc3)=N2)C1=O
measured_parameter: z-score
quantitative_readout: 2.08
//
compound: O=C1C2C=CC(C(O)Cc3ccccc3)N(n3cnnc3)C2C(=O)N1Cc1ccccc1 (centres undefined)
measured_parameter: z-score
quantitative_readout: -1.29
//
compound: COCCOC(=O)N1C(=O)[C@@]2(c3cc(C#Cc4ccc(OC)cc4)ccc31)[C@H](c1ccc(OCCO)cc1)N1[C@H](c3ccccc3)[C@H](c3ccccc3)OC(=O)[C@H]1[C@@H]2C(=O)N1CCN(c2ncccn2)CC1
measured_parameter: z-score
quantitative_readout: -0.0439

Value sought for every listed compound: z-score.
1. C=C(CCCC)/C(=C/C[C@@H](OC(C)=O)c1ccc(OCCO)cc1)c1cnc2ccccc2c1
2. O=C(CS)NCCCCCCNC(=O)[C@@H]1C[C@@H]2C(=O)NCC(=O)N2[C@@H]1c1cccc(OCCO)c1
3. COc1ccc(CCNC(=O)[C@@]2(C)c3ccccc3C(=O)N(C(C)C)[C@H]2c2ccc(CO)cc2)cc1

1. 0.775
2. -0.489
3. -0.0933

Value sought for every listed compound: z-score.
1. COC(=O)[C@@]1(Cc2ccc(OC)cc2)[C@H]2c3cc(C(=O)N(C)C)n(Cc4ccccn4)c3C[C@H]2CN1C(=O)c1ccccc1
2. COC(=O)C(CC#Cc1ccc2c(c1)[C@]1(C(=O)N2)[C@H](C(=O)Nc2nc3ccccc3s2)[C@H]2C(=O)O[C@H](c3ccccc3)[C@H](c3ccccc3)N2[C@@H]1c1ccccc1OCCO)C(=O)OC
3. C=C(C)[C@@H]1CC=C(C(O)C2C=CC3C(=O)N(c4ccccc4)C(=O)C3N2Nc2ccccc2)CC1 (some centres undefined)
4. COC(=O)c1c(CC[C@@H](CO)NC(=O)NCCn2cc(C3(O)CCCC3)nn2)oc(C(C)=O)c1C(=O)OC
5. CC(C)C(O)C1C=CC2C(=O)N(c3ccccc3)C(=O)C2N1Nc1ccc([N+](=O)[O-])cc1 (centres undefined)
6. NC(=O)NCC#Cc1ccc2c(c1)[C@]1(C(=O)N2)[C@H](C(=O)Nc2nc3ccccc3s2)[C@H]2C(=O)O[C@H](c3ccccc3)[C@H](c3ccccc3)N2[C@@H]1c1ccccc1OCCO
7. O=C1NC(=O)C2C1C=CC(C(O)c1cc(C(F)(F)F)cc(C(F)(F)F)c1)N2Nc1ccccn1 (centres undefined)

1. -0.793
2. -0.367
3. 0.296
4. -0.957
5. -0.397
6. 0.28
7. -0.568

Tell me measured z-score for O=C1C[C@@](C(=O)NCC(F)(F)F)(c2ccc([N+](=O)[O-])cc2)[C@@H](c2ccc(CO)cc2I)N1C1CCCCC1 please.
0.324

* * *

target: Calmodulin-1 (Homo sapiens); experiment: calcium-bound CALM1 binders on microarrays, profiling panel, artefact control for SMM control-protein annotation, biochemical, small-molecule microarray, Cy5-labelled CALM1, plus calcium (AID 1112); settings: Cy5-CALM1 binding fluorescence, higher = more signal;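 also: score merges spot fluorescence with signal to noise from triplicate slides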
Each entry falls into one class according to its composite z-score; the ranges are bottom bin = under 0.05, middle bin = from 0.05 up to 0.5, top bin = 0.5 and over

Study these solved cases before continuing.
compound: CC(=O)n1cc(C(O)C2C=CC3C(=O)N(c4ccccc4)C(=O)C3N2Nc2ccc([N+](=O)[O-])cc2)c2ccccc21 (stereo unspecified)
label_value: top bin
--
compound: COC(=O)[C@@]1(Cc2ccccc2)[C@H]2c3cc(C(=O)N(C)C)n(Cc4ccsc4Br)c3C[C@H]2CN1C(=O)c1ccccc1
label_value: middle bin
--
compound: CC(C)C[C@@H]1NC(=O)[C@H](C(C)C)NC(=O)[C@@]23C(=O)N[C@@H](Cc4ccccc4)C2[C@H](C)[C@@]2(C)O[C@H]2C3/C=C/CC/C=C/CNC1=O (stereo partly specified)
label_value: bottom bin
--
compound: COc1cc2c(cc1O)C(c1cccs1)N(C)CC2 (stereo unspecified)
label_value: middle bin

Category lookup for the compound CCOC(=O)C[C@H]1[C@H](OC(=O)c2cc3ccccc3oc2=O)[C@@H](NC(=O)c2ccccc2)c2cc(OCCCO)ccc2N1C(=O)c1ccc2ccccc2n1
bottom bin

Category lookup for the compound C=CCC(OC(C)=O)[C@@H]1[C@@H](N(Cc2ccc(-c3ccccc3)cc2)C(=O)c2ccc(-c3ccccc3)cc2)c2cc(OCCCO)ccc2N1C(=O)Cc1ccc2ccccc2c1 (stereo partly specified)
top bin

Category lookup for the compound C=CCNC(=O)[C@@H]1[C@H]2C(=O)O[C@H](c3ccccc3)[C@H](c3ccccc3)N2[C@H](c2ccc(O)cc2)[C@@]12C(=O)N(C(=O)OCCOC)c1ccc(C#CCNC(N)=O)cc12
middle bin

Category lookup for the compound CC(C)C(CO)N1C(=O)[C@@H]2C3C(=O)OCCC/C=C\[C@H]3OC23C=CCN(CCN2CCOCC2)C(=O)[C@@H]13 (stereo partly specified)
bottom bin

Category lookup for the compound COc1ccccc1CN1C(=O)c2ccccc2[C@@H](C(=O)NC2CC2)[C@@H]1c1ccc(CO)cc1
bottom bin

Category lookup for the compound [N-]=[N+]=NCc1ccccc1C[C@]1(C(N)=O)COC(c2ccc(OCCCO)cc2)=N1
top bin

Category lookup for the compound CCOC(=O)C[C@H]1[C@H](OC(=O)c2ccc(C(=O)c3ccccc3)cc2)[C@@H](NC(=O)CC(C)C)c2cc(OCCCO)ccc2N1C(=O)c1ccc2ccccc2n1
bottom bin

Category lookup for the compound COc1ccc([Si](C)(C)[C@@H]2[C@@H](CCO)O[C@]3(C(=O)N(Cc4ccc(N(C=O)c5ccccc5)cc4)c4ccccc43)[C@H]2C)cc1
top bin

Category lookup for the compound CC1(C)[C@@H]2CC(C(O)C3C=CC4C(=O)N(c5ccccc5)C(=O)C4N3Nc3ccc([N+](=O)[O-])cc3)=C[C@H]1C2 (stereo partly specified)
top bin

Category lookup for the compound CN1C(=O)C2C=CC(C(O)c3ccc([N+](=O)[O-])cc3)N(N3CCCCC3)C2C1=O (stereo unspecified)
middle bin

Category lookup for the compound O[C@@H](Cc1ccccc1)[C@H]1C2C=CCCC=C2CN1Cc1cccc(Cl)c1 (stereo partly specified)
bottom bin
